biological target: hEBI2 (Homo sapiens); experiment: calcium fluorescence (FLIPR); type: cell-based; parameters: expressed in transfected cells; host or cells: CHO-K1 expressing apoaequorin (CHO-Aeq) with Gqi5; line E2
// reported EC50 for each item listed
Unit nM implied. Number only.

Consider the following illustrative entries.
> print(dat)
                                   compound  quantity.kind  experimental.result
1  CC(CO)CCC[C@@H](C)[C@H]1CC[C@H]2[C@@H]3[C@H](O)C=C4C[C@@H](O)CC[C@]4(C)[C@H]3CC[C@]12C (stereo partly drawn)           EC50                  4.8
2  C[C@H](CCCC(C)(C)O)[C@H]1CC[C@H]2[C@@H]3CC=C4C[C@@H](O)CC[C@]4(C)[C@H]3CC[C@]12C [25DHC, 25-hydroxycholesterol]           EC50                 3030

Proceeding to the next compound to report its EC50.
(Q) Item C[C@H](CCCC(C)(C)O)[C@H]1CC[C@H]2[C@@H]3[C@H](O)C=C4C[C@@H](O)CC[C@]4(C)[C@H]3CC[C@]12C has what recorded EC50?
(A) 1.9

----------
molecular target: hEBI2 (Homo sapiens); assay: cAMP assay, hEBI2 CHO-AeqGα16 cells; format: cell-based; design: expressed in transfected cells; host or cells: CHO-K1 expressing apoaequorin (CHO-Aeq) with Gqi5; line E2
Quantity Kind: EC50 (nM)
Unit nM implied. Number only.

(Q) Item C[C@H](CCCC(C)(C)O)[C@H]1CC[C@H]2[C@@H]3[C@H](O)C=C4C[C@@H](O)CC[C@]4(C)[C@H]3CC[C@]12C has what recorded EC50?
(A) 10.3

----------
target: hEBI2 (Homo sapiens); assay: aequorin assay, hEBI2 stably transfected CHO-AeqGα16 cells; type: cell-based; design: expressed in transfected cells; host or cells: CHO-K1 expressing apoaequorin (CHO-Aeq) with Gqi5; line E2; conditions: CHO-AeqGα16; read-out: EC50, activation of EBI2 (aequorin)
Quantity Kind: EC50
Reply with the number and its unit after it.

(Q) Item C[C@H](CCCC(C)(C)O)[C@H]1CC[C@H]2[C@@H]3[C@@H](O)C=C4C[C@@H](O)CC[C@]4(C)[C@H]3CC[C@]12C has what recorded EC50?
(A) 398 nM

----------
molecular target: UniProtKB P32249; assay: aequorin assay, hEBI2 stably transfected CHO-AeqGα16 cells; assay type: cell-based; design: expressed in transfected cells; host or cells: CHO-K1 expressing apoaequorin (CHO-Aeq) with Gqi5; line E2
Quantity Kind: EC50

(Q) Item C[C@H](CCCC(C)(C)O)[C@H]1CC[C@H]2[C@@H]3[C@H](O)C=C4C[C@@H](O)CC[C@]4(C)[C@H]3CC[C@]12C [7a,25DHC, cholest-5-ene-3b,7a,25-triol] has what recorded EC50?
(A) 18.4 nM

----------
// reported IC50 for each item listed
target: hEBI2 (Homo sapiens, UniProt P32249); assay: [3H] 7a,25DHC radio-ligand binding assay (SPA), IC50 determination; design: expressed in transfected cells; host or cells: CHO-K1 expressing apoaequorin (CHO-Aeq) with Gqi5; line E2
Sequence (P32249 whole entry): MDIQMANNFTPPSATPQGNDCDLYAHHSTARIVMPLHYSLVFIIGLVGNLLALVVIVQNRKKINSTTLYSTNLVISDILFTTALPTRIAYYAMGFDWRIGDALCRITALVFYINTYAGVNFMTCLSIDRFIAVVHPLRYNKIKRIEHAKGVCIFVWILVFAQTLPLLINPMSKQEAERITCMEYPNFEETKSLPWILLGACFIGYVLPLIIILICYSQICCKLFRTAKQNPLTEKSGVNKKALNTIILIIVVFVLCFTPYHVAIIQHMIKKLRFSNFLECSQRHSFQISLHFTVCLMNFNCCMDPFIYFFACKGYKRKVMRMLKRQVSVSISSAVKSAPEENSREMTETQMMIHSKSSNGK

Consider the following illustrative entries.
Compound	IC50
CC(CO)CCC[C@@H](C)[C@H]1CC[C@H]2[C@@H]3[C@H](O)C=C4C[C@@H](O)CC[C@]4(C)[C@H]3CC[C@]12C (stereo partly drawn) [7a,27DHC, cholest-5-ene-3b,7a,27-triol]	0.362 µM
CC(CO)CCC[C@@H](C)[C@H]1CC[C@H]2[C@@H]3[C@@H](O)C=C4C[C@@H](O)CC[C@]4(C)[C@H]3CC[C@]12C (stereo partly drawn) [7b,27DHC, cholest-5-ene-3b,7b,27-triol]	> 10 µM

Proceeding to the next compound to report its IC50.
(Q) Form entry - test system: hEBI2 (Homo sapiens, UniProt P32249); read-out: IC50; compound: C[C@H](CCCC(C)(C)O)[C@H]1CC[C@H]2[C@@H]3CC=C4C[C@@H](O)CC[C@]4(C)[C@H]3CC[C@]12C [25DHC, 25-hydroxycholesterol]
(A) > 10 µM
